The reader will find reported tissue to tissue ratio at 2 h values listed item by item below.
- assay_overview: in vivo
- Parameters: species or system mice
- condition_notes: C57, mouse, iv, 0.037 MBq, total radioactivity, Uptake ratio Tumor/kidney
Positions of bridges follow the written chain, without caps; N, C: chain ends. Non-standard residues stand in square brackets, D forms with d. Residues, ends and D or L forms follow the SMILES beside them. *: point of attachment. NOTA = O=C(O)CN1CCN(CC(=O)O)CCN(CC(=O)*)CC1; Nle = CCCC[C@H](N)C(=O)O
Just the number, please, no unit after it.

{"compound": "CCCC[C@H](NC(=O)CNC(=O)CNC(=O)CN1CCN(CC(=O)O)CCN(CC(=O)O)CC1)C(=O)N[C@H]1CC(=O)NCCCC[C@@H](C(N)=O)NC(=O)[C@H](Cc2c[nH]c3ccccc23)NC(=O)[C@H](CCCNC(=N)N)NC(=O)[C@@H](Cc2ccccc2)NC(=O)[C@H](Cc2c[nH]cn2)NC1=O [^67Cu-NOTA-GGNle-CycMSHhex, ^67Cu-NOTA-GlyGlyNle-CycMSHhex, metal not drawn] ({NOTA}-GG[Nle]DH[dF]RWK-NH2; lactam 4-9)", "tissue to tissue ratio at 2 h": 2.29}

Prompt: Find the measured tissue to tissue ratio at 2 h of CCCC[C@H](NC(=O)COCCOCCNC(=O)CN1CCN(CC(=O)O)CCN(CC(=O)O)CC1)C(=O)N[C@H]1CC(=O)NCCCC[C@@H](C(N)=O)NC(=O)[C@H](Cc2c[nH]c3ccccc23)NC(=O)[C@H](CCCNC(=N)N)NC(=O)[C@@H](Cc2ccccc2)NC(=O)[C@H](Cc2c[nH]cn2)NC1=O [^67Cu-NOTA-PEG2Nle-CycMSHhex, metal not drawn] and report it.
Completion: 4.41
